Origin of measurements: patent US20220204601A1

SUBJECT_OF_TEST: T1, K280-ac protein fragment (human)
T1 construct: also called mAC
T1 peptide: VQIINK(Ac)KLDLSN
TEST_PROTOCOL: ELISA on K280-ac coated at 250 ng/well, HRP anti-human IgG
Ends that are not written are not given here.
ENDPOINT_NAME: Absorbance at 450nm at 0.5ug/well
A bare number is all that is needed in reply.

As a guide, the following entries are already answered.
BINDER: ADEL-Y01h v10 antibody (antibody, V domains shown, Humanized antibody; It was detected with anti-human IgG; also called Y01h01v10) VH: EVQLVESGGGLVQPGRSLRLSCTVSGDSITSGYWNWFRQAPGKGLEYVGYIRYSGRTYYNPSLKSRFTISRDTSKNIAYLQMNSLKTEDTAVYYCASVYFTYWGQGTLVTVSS VL: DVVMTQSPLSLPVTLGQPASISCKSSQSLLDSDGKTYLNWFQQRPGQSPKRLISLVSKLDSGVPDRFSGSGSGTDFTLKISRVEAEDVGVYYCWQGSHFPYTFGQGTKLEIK
Absorbance at 450nm at 0.5ug/well: 1.78
--
BINDER: ADEL-Y01h v09 antibody (antibody, V domains shown, Humanized antibody; It was detected with anti-human IgG; also called Y01h01v09) VH: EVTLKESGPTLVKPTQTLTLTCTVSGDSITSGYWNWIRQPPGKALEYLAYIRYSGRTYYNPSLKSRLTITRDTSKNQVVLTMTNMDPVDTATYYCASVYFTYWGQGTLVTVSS VL: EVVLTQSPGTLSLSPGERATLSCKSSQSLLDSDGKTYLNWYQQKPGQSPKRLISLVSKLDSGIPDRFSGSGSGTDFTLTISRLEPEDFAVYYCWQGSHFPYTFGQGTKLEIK
Absorbance at 450nm at 0.5ug/well: 1.45

For reference, reported Absorbance at 450nm at 0.5ug/well for ADEL-Y01h v06 antibody (antibody, V domains shown, Humanized antibody; It was detected with anti-human IgG; also called Y01h01v06) VH: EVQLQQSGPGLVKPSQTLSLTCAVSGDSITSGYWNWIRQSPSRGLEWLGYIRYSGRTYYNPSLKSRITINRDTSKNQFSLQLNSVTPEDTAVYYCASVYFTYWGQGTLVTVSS VL: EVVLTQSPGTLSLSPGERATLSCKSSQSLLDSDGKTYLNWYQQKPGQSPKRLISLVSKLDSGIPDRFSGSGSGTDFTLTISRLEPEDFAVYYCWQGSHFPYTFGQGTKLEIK stands at 1.51

For reference, reported Absorbance at 450nm at 0.5ug/well for ADEL-Y01h01_v01 antibody (antibody, V domains shown, Humanized ADEL-Y01m; It was detected with anti-human IgG; also called ADEL-Y01h v01) VH: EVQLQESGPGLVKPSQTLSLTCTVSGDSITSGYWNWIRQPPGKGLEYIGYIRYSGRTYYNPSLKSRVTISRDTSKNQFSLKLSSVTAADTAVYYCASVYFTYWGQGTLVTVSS VL: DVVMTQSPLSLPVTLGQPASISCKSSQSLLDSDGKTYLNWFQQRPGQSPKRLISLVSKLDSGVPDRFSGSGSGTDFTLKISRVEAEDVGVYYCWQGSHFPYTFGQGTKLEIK stands at 2.07

For reference, reported Absorbance at 450nm at 0.5ug/well for ADEL-Y01h v04 antibody (antibody, V domains shown, Humanized antibody; It was detected with anti-human IgG; also called Y01h01v04) VH: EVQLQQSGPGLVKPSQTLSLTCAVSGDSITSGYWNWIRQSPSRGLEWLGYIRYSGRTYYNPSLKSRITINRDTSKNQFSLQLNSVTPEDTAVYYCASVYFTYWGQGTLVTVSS VL: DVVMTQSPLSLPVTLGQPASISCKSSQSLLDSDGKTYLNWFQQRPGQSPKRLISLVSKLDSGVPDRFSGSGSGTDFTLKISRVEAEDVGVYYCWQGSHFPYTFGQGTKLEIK stands at 2.04

For reference, reported Absorbance at 450nm at 0.5ug/well for ADEL-Y01h v05 antibody (antibody, V domains shown, Humanized antibody; It was detected with anti-human IgG; also called Y01h01v05) VH: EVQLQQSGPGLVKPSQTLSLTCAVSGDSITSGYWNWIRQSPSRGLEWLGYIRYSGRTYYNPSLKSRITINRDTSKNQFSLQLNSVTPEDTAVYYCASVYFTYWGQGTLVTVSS VL: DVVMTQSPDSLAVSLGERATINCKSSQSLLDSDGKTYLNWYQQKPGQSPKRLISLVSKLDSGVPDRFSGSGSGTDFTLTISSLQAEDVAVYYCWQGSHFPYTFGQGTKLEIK stands at 1.7
